target: UniProt:P14416
Output Criterion met for records whose Ki is lower than 400 nM, Criterion not met for records at or above 400 nM.

Example entries and their recorded answers appear below.
c1cc2c(s1)CCC1NCCOC21 (centres undefined)    Criterion not met
CCCN(CCC)CC1CCc2ccsc2C1 (centres undefined)    Criterion not met
Oc1ccc2c(c1)C1OCCN(CCc3cccs3)C1CC2 (racemic)    Criterion not met

Ask: Field: below-cutoff. Rule: recorded Ki strictly less than 400 nM. Subject: CCCN(CCC)C1CCc2ccsc2C1 (centres undefined)
Result: Criterion met

Ask: What about this compound? CCCN(CCc1ccsc1)CCc1cccs1
Result: Criterion not met

----------
molecular target: D(3) dopamine receptor (Homo sapiens, UniProt P35462)
Sequence (P35462 whole entry): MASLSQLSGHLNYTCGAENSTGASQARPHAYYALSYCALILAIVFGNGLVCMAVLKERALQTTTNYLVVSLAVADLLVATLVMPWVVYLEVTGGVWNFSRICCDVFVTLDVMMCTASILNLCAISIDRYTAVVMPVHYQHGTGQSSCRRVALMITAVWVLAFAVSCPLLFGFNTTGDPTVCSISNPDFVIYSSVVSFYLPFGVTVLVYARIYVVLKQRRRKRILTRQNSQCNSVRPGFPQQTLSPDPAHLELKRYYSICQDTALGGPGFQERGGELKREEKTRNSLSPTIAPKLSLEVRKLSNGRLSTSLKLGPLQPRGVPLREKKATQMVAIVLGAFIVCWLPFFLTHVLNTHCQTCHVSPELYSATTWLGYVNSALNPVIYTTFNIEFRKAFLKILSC
Output class 1 for records whose Ki is lower than 0.1 µM, class 0 for records at or above 0.1 µM.

Example entries and their recorded answers appear below.
CCCN(CCC)[C@@H]1Cc2cccc(O)c2C[C@H]1C    class 1
CCCN(CCC)C1CCc2ccsc2C1 (configuration not stated)    class 1
c1cc2c(s1)CCC1NCCOC21 (configuration not stated)    class 0
CCCN(CCc1ccsc1)CCc1cccs1    class 0
CCCN1CCOC2c3ccsc3CCC21 (configuration not stated)    class 0
CCCN(CCC)CC1CCc2sccc2C1 (configuration not stated)    class 0

Attention now shifts to the item below.
Ask: Field: below-cutoff. Rule: recorded Ki strictly less than 0.1 µM. Subject: CCCN1CC(c2ccccc2)OC2c3cc(O)ccc3CCC21 (racemic)
Result: class 1

----------
experiment: Oral bioavailability in rat; type: ADME, organism-based; conditions: in vivo
Metric Name: bioavailability (%)
State just the number; it will be interpreted in %.

Ask: # input compound: CCCN(CCC)C1CCc2ccsc2C1 (configuration not stated) ; wanted: its bioavailability
Result: 10

----------
biological target: D(2) dopamine receptor (Homo sapiens, UniProt P14416)
Sequence (P14416 whole entry): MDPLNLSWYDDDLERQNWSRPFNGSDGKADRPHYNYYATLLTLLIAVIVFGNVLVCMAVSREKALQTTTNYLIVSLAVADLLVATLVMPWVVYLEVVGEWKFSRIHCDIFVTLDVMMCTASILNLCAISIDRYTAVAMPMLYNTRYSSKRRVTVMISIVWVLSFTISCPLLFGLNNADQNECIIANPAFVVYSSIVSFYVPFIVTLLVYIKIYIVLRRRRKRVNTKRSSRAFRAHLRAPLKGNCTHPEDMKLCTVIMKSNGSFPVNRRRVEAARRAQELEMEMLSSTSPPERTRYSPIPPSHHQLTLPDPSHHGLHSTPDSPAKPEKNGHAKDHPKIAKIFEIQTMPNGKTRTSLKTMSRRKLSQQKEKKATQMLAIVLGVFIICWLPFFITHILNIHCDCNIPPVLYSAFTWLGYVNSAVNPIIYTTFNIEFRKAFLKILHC
Ki: recorded values
State just the number; it will be interpreted in nM.

Below: 3 compounds and their reported Ki.
CCCN(CCC)[C@@H]1Cc2cccc(O)c2C[C@H]1C    14
CCCN(CCC)C1CCc2sccc2C1 (centres undefined)    20
CCCN1CC(c2ccccc2)OC2c3cc(O)ccc3CCC21 (racemic)    375

Next compound, please.
Ask: # input compound: CCCN1CCOC2c3ccsc3CCC21 (centres undefined) ; wanted: its Ki
Result: 630

Hello, the source for this data is ChEMBL document CHEMBL1135499, in case you need it.
